# assay comment: Serum concentration after 28 days of oral dosing in male OCI-LY3 tumor-bearing NSG mice
# Format: in vivo
# conditions used: mouse, 10 mg/kg BID PO 28 days, 8 h post last dose, mean
measured metric: concentration at 8 h (ng/mL)
# unit: ng/mL | format: bare number

Any idea what its concentration at 8 h is? The molecule is "O=C(Nc1ccnc(C(F)(F)F)c1)c1cnn(-c2cccc3c(=O)[nH]ccc23)c1C(F)(F)F" 5500

====

# assay comment: 14-day oral toxicity study toxicokinetics in Sprague-Dawley rats
# Format: in vivo
# conditions used: male, rat, plasma, 1000 mg/kg/day, male, Day 0, 1,000 mg/kg/day, range
measured metric: Tmax

Any idea what its Tmax is? The compound is "O=C(Nc1ccnc(C(F)(F)F)c1)c1cnn(-c2cccc3c(=O)[nH]ccc23)c1C(F)(F)F" 2 to 9 h
